experimental target: VIM-2 metallo β-lactamase (Pseudomonas aeruginosa, UniProt Q9K2N0)
Construct: made in house
method: β-lactamase enzyme inhibition assay (nitrocefin substrate), VIM-2
Type: biochemical
readout label: IC50 (nM)
The answer is to be given in nM; state only the numeric part.

Prompt line: Entry O=C(N[C@@H](Cc1cccc(C(=O)O)c1O)B(O)O)c1ccc(C[n+]2ccccc2)cc1 [Example 14] , system VIM-2 metallo β-lactamase (Pseudomonas aeruginosa, UniProt Q9K2N0): what IC50 was measured?
Response line: 360

---
Prompt line: Entry CC[N+](CC)(CC)Cc1ccc(C(=O)N[C@@H](Cc2cccc(C(=O)O)c2O)B(O)O)cc1 [Example 13] , system VIM-2 metallo β-lactamase (Pseudomonas aeruginosa, UniProt Q9K2N0): what IC50 was measured?
Response line: 340

---

experimental target: p99 AmpC β-lactamase (Enterobacter cloacae)
Construct: expressed as native untagged proteins; made in house; host or cells: E. coli BL21(DE3)
Sequence (P05364 21-381): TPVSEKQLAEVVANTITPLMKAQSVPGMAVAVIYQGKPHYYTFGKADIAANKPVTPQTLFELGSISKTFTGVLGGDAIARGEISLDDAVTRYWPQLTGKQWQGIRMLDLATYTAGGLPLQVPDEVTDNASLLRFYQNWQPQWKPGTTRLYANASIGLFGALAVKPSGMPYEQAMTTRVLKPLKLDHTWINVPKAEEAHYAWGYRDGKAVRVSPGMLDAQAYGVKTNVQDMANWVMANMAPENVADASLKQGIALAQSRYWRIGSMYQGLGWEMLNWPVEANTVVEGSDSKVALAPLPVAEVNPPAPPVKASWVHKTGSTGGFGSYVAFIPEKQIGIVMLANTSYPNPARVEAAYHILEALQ
method: β-lactamase enzyme inhibition assay (nitrocefin substrate), P99 AmpC
Type: biochemical
Where a name gives a salt, the structure may show the parent alone.
readout label: log10 IC50 (log10 of the value in nM)
Base-10 log of IC50, unit nM.

Prompt line: Can you share its log10 IC50? I mean this compound: CO/N=C(\C(=O)N[C@@H](Cc1cccc(C(=O)O)c1O)B(O)O)c1csc(NC(=O)[C@@H](N)CCCCN)n1 [Example 52, hydrochloride]
Response line: 0.90

Prompt line: Can you share its log10 IC50? I mean this compound: N=C(N)NCc1cc(CC(=O)N[C@@H](Cc2cccc(C(=O)O)c2O)B(O)O)ccn1 [Example 64, formate]
Response line: 0.90

Prompt line: Can you share its log10 IC50? I mean this compound: O=C(N[C@@H](Cc1cccc(C(=O)O)c1O)B(O)O)c1ccc(C[n+]2ccccc2)cc1
Response line: 1.46

Prompt line: Can you share its log10 IC50? I mean this compound: C[N+]1(Cc2ccc(CC(=O)N[C@@H](Cc3cccc(C(=O)O)c3O)B(O)O)cc2)CCOCC1 [Example 41, formate]
Response line: 1.30

Prompt line: Can you share its log10 IC50? I mean this compound: CC[N+](CC)(CC)Cc1ccc(C(=O)N[C@@H](Cc2cccc(C(=O)O)c2O)B(O)O)cc1
Response line: 0.60

---
Prompt line: Can you share its log10 IC50? I mean this compound: Nc1cc(CC(=O)N[C@@H](Cc2cccc(C(=O)O)c2O)B(O)O)ccn1 [Example 45, formate]
Response line: 0.30

Prompt line: Can you share its log10 IC50? I mean this compound: O=C(N[C@@H](Cc1cccc(C(=O)O)c1O)B(O)O)c1ccc(CN2CCNCC2)cc1 [Example 5, Hydrochloride]
Response line: 0.00

---

experimental target: OXA-23 β-lactamase (Acinetobacter baumannii, UniProt Q9L4P2)
Construct: crude β-lactamase extracts were prepared from 20 ml overnight cultures; endogenous in cells; host or cells: Acinetobacter baumannii cells containing OXA-23 (crude freeze-thaw extract)
Sequence (Q9L4P2 18-273): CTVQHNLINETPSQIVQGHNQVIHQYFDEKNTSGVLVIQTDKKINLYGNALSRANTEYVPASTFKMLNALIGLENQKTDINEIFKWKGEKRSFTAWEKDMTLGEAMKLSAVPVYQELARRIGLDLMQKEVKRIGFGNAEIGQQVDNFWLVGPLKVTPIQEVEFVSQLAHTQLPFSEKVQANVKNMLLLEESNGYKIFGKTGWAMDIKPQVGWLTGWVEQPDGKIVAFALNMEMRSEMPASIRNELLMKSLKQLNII
method: β-lactamase enzyme inhibition assay (nitrocefin substrate), OXA-23 crude extract
Format: biochemical
experimental setup: nitrocefin 100 μM, 37° C., PBS pH 7.0; read-out: OXA-23 IC50
Where a name gives a salt, the structure may show the parent alone.
# pIC50 values compiled below
Would you please state pIC50, meaning minus log10 of the concentration in mol/L, as a bare number?

Some solved entries appear below for comparison.
Prompt line: Can you share its pIC50? I mean this molecule: O=C(Cc1ccc(CN(CCO)CCO)cc1)N[C@@H](Cc1cccc(C(=O)O)c1O)B(O)O [Example 39]
Response line: 6.78

Prompt line: Can you share its pIC50? I mean this molecule: NCc1cccc(C(=O)N[C@@H](Cc2cccc(C(=O)O)c2O)B(O)O)c1 [Example 1, hydrochloride]
Response line: 7.19

Here is the next item to consider.
Prompt line: Can you share its pIC50? I mean this molecule: C/C(=N/O)C(=O)N[C@@H](Cc1cccc(C(=O)O)c1O)B(O)O [Example 54]
Response line: 6.31

---

# pIC50 values compiled below
experimental target: OXA-23 β-lactamase (Acinetobacter baumannii)
Construct: crude β-lactamase extracts were prepared from 20 ml overnight cultures; endogenous in cells; host or cells: Acinetobacter baumannii cells containing OXA-23 (crude freeze-thaw extract)
method: β-lactamase enzyme inhibition assay (nitrocefin substrate), OXA-23 crude extract
Type: biochemical
experimental setup: nitrocefin 100 μM, 37° C., PBS pH 7.0; read-out: OXA-23 IC50
Where a name gives a salt, the structure may show the parent alone.
Would you please state pIC50, meaning minus log10 of the concentration in mol/L, as a bare number?

Some solved entries appear below for comparison.
Prompt line: Entry Nc1cc(CC(=O)N[C@@H](Cc2cccc(C(=O)O)c2O)B(O)O)ccn1 [Example 45, formate] , system OXA-23 β-lactamase (Acinetobacter baumannii): what pIC50 was measured?
Response line: 6.95

Prompt line: Entry O=C(Cc1ccc(CN2CCNCC2)cc1)N[C@@H](Cc1cccc(C(=O)O)c1O)B(O)O [Example 37] , system OXA-23 β-lactamase (Acinetobacter baumannii): what pIC50 was measured?
Response line: 7.08

Prompt line: Entry CC/C(=N/O)C(=O)N[C@@H](Cc1cccc(C(=O)O)c1O)B(O)O [Example 55] , system OXA-23 β-lactamase (Acinetobacter baumannii): what pIC50 was measured?
Response line: 7.17

Prompt line: Entry C[N+]1(Cc2ccc(CC(=O)N[C@@H](Cc3cccc(C(=O)O)c3O)B(O)O)cc2)CCOCC1 [Example 41, formate] , system OXA-23 β-lactamase (Acinetobacter baumannii): what pIC50 was measured?
Response line: 6.70

Prompt line: Entry Nc1ccc(CC(=O)N[C@@H](Cc2cccc(C(=O)O)c2O)B(O)O)cn1 [Example 46] , system OXA-23 β-lactamase (Acinetobacter baumannii): what pIC50 was measured?
Response line: 6.68

---
Prompt line: Entry O=C(N[C@@H](Cc1cccc(C(=O)O)c1O)B(O)O)c1cccc(CNc2nccs2)c1 [Example 31] , system OXA-23 β-lactamase (Acinetobacter baumannii): what pIC50 was measured?
Response line: 8.00

Prompt line: Entry O=C(Cc1ccc(CNc2ccccn2)cc1)N[C@@H](Cc1cccc(C(=O)O)c1O)B(O)O [Example 57] , system OXA-23 β-lactamase (Acinetobacter baumannii): what pIC50 was measured?
Response line: 6.81

---

Tested on: E. cloacae expressing the Class C P99+
method: In vitro antibacterial assay of β-lactamase inhibition (broth microdilution MIC), E. cloacae P99+
Assay type: cell-based
experimental setup: in presence of Ceftazidime 8 μg/ml (Examples 1-56)
Structures can show the parent of a compound that is named as a salt.
# MIC of example compound, E. cloacae P99+ values compiled below
The answer is to be given in µg/mL; state only the numeric part.

Prompt line: Can you share its MIC of example compound, E. cloacae P99+? I mean this molecule: O=C(N[C@@H](Cc1cccc(C(=O)O)c1O)B(O)O)c1cccc(CNc2cccnc2)c1 [Example 26]
Response line: 2

---
Prompt line: Can you share its MIC of example compound, E. cloacae P99+? I mean this molecule: O=C(N[C@@H](Cc1cccc(C(=O)O)c1O)B(O)O)c1ccc(C[n+]2ccccc2)cc1 [Example 14]
Response line: 0.5

Prompt line: Can you share its MIC of example compound, E. cloacae P99+? I mean this molecule: Cl.Nc1ccc(C(=O)N[C@@H](Cc2cccc(C(=O)O)c2O)B(O)O)cn1 [Example 7]
Response line: 0.12

Prompt line: Can you share its MIC of example compound, E. cloacae P99+? I mean this molecule: CN(C)Cc1ccc(C(=O)N[C@@H](Cc2cccc(C(=O)O)c2O)B(O)O)cc1 [Example 4, formate salt]
Response line: 2

Prompt line: Can you share its MIC of example compound, E. cloacae P99+? I mean this molecule: CN(C)Cc1ccc(CC(=O)N[C@@H](Cc2cccc(C(=O)O)c2O)B(O)O)cc1 [Example 36]
Response line: 0.25

Prompt line: Can you share its MIC of example compound, E. cloacae P99+? I mean this molecule: NCCNCc1cccc(C(=O)N[C@@H](Cc2cccc(C(=O)O)c2O)B(O)O)c1 [Example 18]
Response line: 0.25

---

experimental target: KPC-2 β-lactamase (Klebsiella pneumoniae)
Construct: expressed as native untagged proteins; made in house; host or cells: E. coli BL21(DE3)
Sequence (Q9F663 25-293 limits assumed): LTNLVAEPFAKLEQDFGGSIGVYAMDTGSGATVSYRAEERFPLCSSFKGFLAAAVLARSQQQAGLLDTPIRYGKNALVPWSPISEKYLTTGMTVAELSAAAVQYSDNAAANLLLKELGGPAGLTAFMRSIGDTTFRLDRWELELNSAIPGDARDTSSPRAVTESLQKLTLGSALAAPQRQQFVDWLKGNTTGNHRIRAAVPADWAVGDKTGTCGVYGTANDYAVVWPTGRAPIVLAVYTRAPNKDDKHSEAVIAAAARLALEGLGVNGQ
method: β-lactamase enzyme inhibition assay (nitrocefin substrate), KPC-2
Format: biochemical
Structures can show the parent of a compound that is named as a salt.
readout label: IC50 (µM)
The answer is to be given in µM; state only the numeric part.

Some solved entries appear below for comparison.
Prompt line: Can you share its IC50? I mean this compound: O=C(Cc1ccc(CNc2ccccn2)cc1)N[C@@H](Cc1cccc(C(=O)O)c1O)B(O)O
Response line: 0.013

Prompt line: Can you share its IC50? I mean this compound: NCCNCc1cccc(C(=O)N[C@@H](Cc2cccc(C(=O)O)c2O)B(O)O)c1
Response line: 0.014

Prompt line: Can you share its IC50? I mean this compound: O=C(Cc1ccc(CNCCO)cc1)N[C@@H](Cc1cccc(C(=O)O)c1O)B(O)O
Response line: 0.018

---
Prompt line: Can you share its IC50? I mean this compound: CCC(=O)C(=O)N[C@@H](Cc1cccc(C(=O)O)c1O)B(O)O
Response line: 0.024

Prompt line: Can you share its IC50? I mean this compound: CC(=O)Nc1ccc(C(=O)N[C@@H](Cc2cccc(C(=O)O)c2O)B(O)O)cn1
Response line: 0.004

Prompt line: Can you share its IC50? I mean this compound: Nc1cc(CC(=O)N[C@@H](Cc2cccc(C(=O)O)c2O)B(O)O)ccn1 [Example 45, formate]
Response line: 0.006

Prompt line: Can you share its IC50? I mean this compound: NCCNCc1ccc(CC(=O)N[C@@H](Cc2cccc(C(=O)O)c2O)B(O)O)cc1
Response line: 0.017
